method: NCI Yeast Anticancer Drug Screen. Data for the mec2-1 strain (AID 157)
measurement_parameters: S. cerevisiae mec2-1 strain, at 50.0 µM, stronger effect = higher value
The panel holds about 79,000 compounds, 15% with a hit somewhere; the sample as a whole holds those more often.
Reported growth inhibition is given for each of the following compounds.
I only need the number, in %, no unit after it.

compound: CCOC(=O)NN1C(=O)c2cccc3c([N+](=O)[O-])ccc(c23)C1=O
observed: 61.9
//
compound: CCOC(=O)c1cc2c(cn1)[nH]c1cccc(N)c12
observed: -39.5
//
compound: CCOC(=O)C(Cl)(NC(=O)OCc1ccccc1)C(F)(F)F (stereo not given)
observed: 0
//
compound: N=c1nc2ccc3ccccc3c2nn1-c1ccc([N+](=O)[O-])cc1
observed: 16.4

Now for the compound whose growth inhibition we want.
Exercise: growth inhibition for CN1CCCC1c1cccnc1.O=C(O)c1ccccc1O.O=C([O-])c1ccccc1[OH2+].O=C([O-])c1ccccc1[OH2+].[Mn+2] (stereo not given) ?
Key: -0.4

---

method: NCI Yeast Anticancer Drug Screen. Data for the bub3 strain (AID 167)
measurement_parameters: S. cerevisiae bub3 mutant strain, at 50.0 µM, stronger effect = higher value
The panel holds about 79,000 compounds, 15% with a hit somewhere; the sample as a whole holds those more often.
quantity_kind: growth inhibition (%)
I only need the number, in %, no unit after it.

Consider the worked cases shown below.
compound: C[C@@H]1C[C@H](C)OC(CO)O1 (stereo partly specified) (tested in a mixture with another compound)
units_of_measure: %
observed: -12.6
--
compound: N#Cc1nc(C(O)c2ccccc2)oc1N (stereo unspecified)
units_of_measure: %
observed: -10.3
--
compound: Cc1ccc(O)cc1C=C(Cl)Cl
units_of_measure: %
observed: -0.3
--
compound: O=C(CCC(NC(=O)OCc1ccccc1)C(=O)OCc1ccccc1)Nc1cccc(OCc2ccccc2)c1 (stereo unspecified)
units_of_measure: %
observed: -20
--
compound: OC1COCCC(O)(CNCc2ccccc2)C1O (stereo unspecified)
units_of_measure: %
observed: -6.95

Now for the compound whose growth inhibition we want.
Exercise: growth inhibition for S=C(S)N1CCN(c2cccc(Cl)c2)CC1 ?
Key: 47.1

---

method: NCI Yeast Anticancer Drug Screen. Data for the rad50 strain (AID 155);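 also: 0% = growth of vehicle-only cultures of the same strain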
measurement_parameters: S. cerevisiae rad50 strain growth inhibition; at 50.0 µM
About 79,000 compounds went through this panel and 15% of them were active in at least one assay; those are over-represented in the sample as a whole. Calls of active or inactive are those of the source. No stated cut-off is given here; in the data, active means growth inhibition above about 70%; inactive means the rest.
Can you answer with just one of these options? yes for active, no for inactive

compound: CC(C)=NNC(=O)Nc1cccc(C)c1C
class: no
//
compound: Cc1cc(C)[n+](C)c2cc3ccccc3cc12
class: no
//
compound: COC1(OC)C(c2ccc([N+](=O)[O-])cc2)C([N+](=O)[O-])C1(OC)OC (stereo unspecified)
class: no
//
compound: CCN(CC)CCN(C)CCN(CC)CC
class: no
//
compound: Cc1ccc(I)cc1
class: no
//
compound: N#CC(OC(=O)c1ccccc1)C(OC(=O)c1ccccc1)C(COC(=O)c1ccccc1)OC(=O)c1ccccc1 (stereo unspecified)
class: no
//
compound: Clc1nc(N2CCCCC2)c2[nH]cnc2n1
class: no
//
compound: Cc1c([N+](=O)[O-])cc(C(C)(C)C)c(OC(=O)CCl)c1[N+](=O)[O-]
class: yes
//
compound: O=C(OCC1OC(n2cnc3c(Cl)ncnc32)C(OC(=O)c2ccccc2)C1OC(=O)c1ccccc1)c1ccccc1 (stereo unspecified)
class: no
//
compound: COc1cc2c(cc1OC)C(c1cc(OC)c(OC)c(OC)c1)C1(O)C(=O)OCC1(O)C2 (stereo unspecified)
class: no

Now look at this entry.
Exercise: Returns: the outcome recorded for CCO/C=C1/N=C(c2cc([N+](=O)[O-])cc([N+](=O)[O-])c2C)OC1=O in this assay.
Key: no
